# ASSAY_EXPLANATION: pH-metric titration, acid-base behavior (UV-vis, HypSpec)
# Assay type: physicochemical
# COND: aqueous solution diluted from a methanol mother solution; 25.0 °C, ionic strength 0.1 M NaNO3; read-out: pKa (keto-enol moiety)
Consider the following compounds; for each one, report its pKa.

pKa recorded for this compound, COc1cccc(/C=C/C(=O)C(CCCN2C(=O)c3ccccc3C2=O)C(=O)/C=C/c2cccc(OC)c2)c1 , is 8 to 8.5

Measured pKa, COc1cc(/C=C/C(=O)C(CCCN2C(=O)c3ccccc3C2=O)C(=O)/C=C/c2ccc(OC(C)=O)c(OC)c2)ccc1OC(C)=O : 8 to 8.5

* * *

Assignment: determine reported GI50 for the given compounds.
# Test system: PC3 cells
# ASSAY_EXPLANATION: MTT cell viability assay, PC3
# Assay type: cell-based, Human
# COND: Homo sapiens, PC-3, 48 h, 48 h treatment, MTT
Supply the numeric figure in µM, leaving out any unit text.

Record summary for COc1cc(/C=C/C(=O)C(CCCN2C(=O)c3ccccc3C2=O)C(=O)/C=C/c2ccc(O)c(OC)c2)ccc1O : reported GI50 = 7.9

// GI50 lookup, compound = COc1cc(C=CC(=O)CC(=O)C=Cc2ccc(O)c(OC)c2)ccc1O [Curcumin, reference compound] , result: 21

COc1cccc(/C=C/C(=O)C(CCCN2C(=O)c3ccccc3C2=O)C(=O)/C=C/c2cccc(OC)c2)c1 has a reported GI50 of 12.4

Item: COc1cc(/C=C/C(=O)C(CCCN2C(=O)c3ccccc3C2=O)C(=O)/C=C/c2ccc(OC(C)=O)c(OC)c2)ccc1OC(C)=O | GI50: 16.7
